Target: T1, EVA-1 (UniProt P0C8E7 21-114, biotin on the Avi-tag (Bir-A ligase))
T1 sequence (looked up): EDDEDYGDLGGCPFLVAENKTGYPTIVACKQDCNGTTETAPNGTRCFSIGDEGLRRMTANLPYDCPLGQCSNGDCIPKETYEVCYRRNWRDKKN
Test: SPR
PARAMETER_MEASURED: Kd (nM)

- BINDER: "CCL18 (ligand, human, UniProt P55774 21-89, looked up) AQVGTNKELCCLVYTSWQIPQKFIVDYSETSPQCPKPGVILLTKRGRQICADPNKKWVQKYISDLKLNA"
  UNIT: "nM"
  Kd: 192
- BINDER: "CCL3 (ligand, human, UniProt P10147 24-92, looked up) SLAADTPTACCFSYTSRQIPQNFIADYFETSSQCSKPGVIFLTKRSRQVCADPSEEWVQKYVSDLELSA"
  UNIT: "nM"
  Kd: 0.21

[I] CCL4 (ligand, human, UniProt P13236 24-92, looked up) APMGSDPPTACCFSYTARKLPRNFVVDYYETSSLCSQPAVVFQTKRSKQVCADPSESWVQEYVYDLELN
[II] CCL14 (ligand, human, UniProt Q16627 20-93, looked up) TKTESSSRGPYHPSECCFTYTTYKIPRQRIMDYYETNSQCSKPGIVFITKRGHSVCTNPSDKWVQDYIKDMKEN
Request: Just curious, which one has the larger Kd reading, I or II ? State the label of the item chosen.
Result: II
(II: 92 nM, I: 60.7 nM)
